Hey, just so you know, these numbers are from ChEMBL document CHEMBL1961873.

In this section we review reported inhibition values for a set of molecules.
- TGT: Dual specificity mitogen-activated protein kinase kinase 1 (Homo sapiens) (UniProt Q02750)
- Sequence (Q02750 whole entry): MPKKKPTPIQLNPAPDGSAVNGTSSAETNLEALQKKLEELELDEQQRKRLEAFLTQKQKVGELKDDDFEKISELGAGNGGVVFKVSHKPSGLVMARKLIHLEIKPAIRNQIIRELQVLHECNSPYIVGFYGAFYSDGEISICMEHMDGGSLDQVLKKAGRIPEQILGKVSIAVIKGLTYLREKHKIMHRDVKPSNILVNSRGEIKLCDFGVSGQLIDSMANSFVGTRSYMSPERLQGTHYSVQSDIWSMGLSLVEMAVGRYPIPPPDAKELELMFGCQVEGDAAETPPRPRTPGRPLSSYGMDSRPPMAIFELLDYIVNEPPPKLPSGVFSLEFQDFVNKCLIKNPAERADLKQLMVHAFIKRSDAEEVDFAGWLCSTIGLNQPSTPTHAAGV
- CONDITION LABEL: at 1 µM;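 further: values reported are mean inhibition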
MEASUREMENT KIND: inhibition (%)

1) NS(=O)(=O)c1cccc(N/C=C2\C(=O)Nc3ccccc32)c1 : 5.35
2) CC1=C(C(=O)Nc2ccc3[nH]nc(C)c3c2)C(c2ccc(C(F)(F)F)cc2)CC(=O)N1 (centres undefined) : 36.5
3) COc1cccc(-n2ncc3c(N/N=C/c4ccc(C(=O)NCCN(C)C)cc4)ncnc32)c1 : 4.04
4) Cc1ccc(-c2cc3c(NC(=O)C4CC4)ncnc3o2)cc1 : 3.21
